- Tested on: RXF 393 renal
- experiment.notes: NCI-60 one-dose screen, 48 h (100 = growth as untreated, 0 = no growth, -100 = all killed)
- setup.conditions: 10 µM unless noted
The panel holds about 83,000 compounds, 20% with a hit somewhere; the sample as a whole holds those more often.
A collection of compounds and their measured growth
quantity: growth (%)

{"compound": "CCOc1ccc(NC(=O)CSc2oc(-c3ccccc3)nc2S(=O)(=O)c2ccc(F)cc2)cc1", "quantity": "growth", "readout.units": "%", "endpoint.value": 77.6}
{"compound": "O=C1c2cc(Cl)ccc2S(=O)(=O)c2c(NCCCNCCO)nc3ccccc3c21", "quantity": "growth", "readout.units": "%", "endpoint.value": -36.5}
{"compound": "CCN(CC)c1nc(SCc2ccccc2Cl)ncc1C", "quantity": "growth", "readout.units": "%", "endpoint.value": 99.6}
{"compound": "N#C/C(=C\\c1ccc(Br)cc1)n1nnc2ccc(F)cc21", "quantity": "growth", "readout.units": "%", "endpoint.value": -41}
{"compound": "CC(=O)N1N=C(c2ccc(Nc3nc(Nc4ccc(Cl)cc4)nc(Nc4ccc(Cl)cc4)n3)cc2)CC1c1ccco1 (stereo not given)", "quantity": "growth", "readout.units": "%", "endpoint.value": 71.1}
{"compound": "O=S(=O)(NCCNc1cc(-c2c(-c3cccc(O)c3)nc3sccn23)ccn1)c1ccc(C(F)(F)F)cc1", "quantity": "growth", "readout.units": "%", "endpoint.value": 42.1}
{"compound": "CSc1nnc(-c2cnn3c2NC(c2ccccc2)C3)n1-c1ccc(C(F)(F)F)cc1 (stereo not given)", "quantity": "growth", "readout.units": "%", "endpoint.value": 79.1}
{"compound": "Nc1ncnc2c1N=C(c1ccc3c(c1)OCO3)CC(c1cccc(Nc3ccnc4cc(Cl)ccc34)c1)N2 (stereo not given)", "quantity": "growth", "readout.units": "%", "endpoint.value": 72.2}
{"compound": "Cc1ccc(/C=N/Nc2nc(Nc3ccccc3)nc(-n3nc(C)cc3C)n2)cc1", "quantity": "growth", "readout.units": "%", "endpoint.value": 55.9}
{"compound": "O=S(=O)(NCCNc1nccc(-c2c(-c3cccc(F)c3)nc3occn23)n1)c1ccc(Br)cc1", "quantity": "growth", "readout.units": "%", "endpoint.value": 68.3}
{"compound": "C=CC(=O)NCc1ccc(Nc2nccc(-c3ccc(N4CCCC4)c(C#N)c3)n2)cc1", "quantity": "growth", "readout.units": "%", "endpoint.value": -1.91}
{"compound": "CCOC(=O)C1=C(NC)OCC1=O", "quantity": "growth", "readout.units": "%", "endpoint.value": 100}
{"compound": "CCOC(=O)c1[nH]c(=O)c2c(C)nc(-c3ccccc3)cc2c1O", "quantity": "growth", "readout.units": "%", "endpoint.value": 112}
{"compound": "Nc1c(C(=O)Nc2ccccc2Cl)sc2nc3c(cc12)C(O)CCC3 (stereo not given)", "quantity": "growth", "readout.units": "%", "endpoint.value": 19.6}
{"compound": "Cc1cnc(C(=O)NNc2nc3sc4c(c3c(=O)n2C)C(C)CCC4)cn1 (stereo not given)", "quantity": "growth", "readout.units": "%", "endpoint.value": -12.6}
{"compound": "CC12CCC3c4ccccc4CCC3(CO1)C2 (stereo not given)", "quantity": "growth", "readout.units": "%", "endpoint.value": 93.4}
{"compound": "CC(C)=CCC[C@](C)(O)[C@H]1CC[C@]2(C)[C@@H]1CC[C@@H]1[C@@]3(C)Cc4nccnc4C(C)(C)[C@@H]3CC[C@]12C", "quantity": "growth", "readout.units": "%", "endpoint.value": 94.3}
{"compound": "Cc1ccccc1NC(=O)c1sc2nc(C)c(C(=O)/C=C/c3ccccc3)cc2c1N", "quantity": "growth", "readout.units": "%", "endpoint.value": -26.7}
{"compound": "Cc1nc2ncnc(Cl)c2[nH]1", "quantity": "growth", "readout.units": "%", "endpoint.value": 112}
{"compound": "C=C1C(=O)O[C@H]2[C@H]1CC/C(COC(=O)NCc1ccc(Cn3c(=O)sn(CCI)c3=O)cc1)=C\\CC[C@@]1(C)O[C@@H]21", "quantity": "growth", "readout.units": "%", "endpoint.value": 0.0448}

---

- Test system: K-562 leukemia
- experiment.notes: NCI-60 one-dose screen, 48 h
- setup.conditions: 10 µM unless noted
Compounds without any hit were thinned out: in the full panel of roughly 83,000, 20% have a hit. The source made the active and inactive calls. Rule for the calls: active = growth percent below 10; inactive = the rest.
Labels: yes (active), no (inactive)

{"molecule": "C=C1C(=O)O[C@H]2[C@H]1CC/C(COC(=O)NCc1cc[nH]c1)=C\\CC[C@@]1(C)O[C@@H]21", "cat": "no"}
{"molecule": "CCN(c1ccc(Cl)cc1)c1nc(-c2ccc([N+](=O)[O-])cc2)cs1", "cat": "no"}
{"molecule": "O=C(Cn1c(=O)sc2nc3ccccc3nc21)Nc1ncc(Cc2cccc(Cl)c2Cl)s1", "cat": "no"}
{"molecule": "N#CCSc1nnc2n(Cc3ccccc3)c(=O)c3c4c(sc3n12)CCCC4", "cat": "no"}
{"molecule": "OB(O)c1cccc(-c2nc3ccc4[nH]ncc4c3c3c2CCCC3)c1", "cat": "no"}
{"molecule": "C=CCn1c(SCC(=O)Nc2ccc(C(=O)/C=C/c3cc4cc(OC)ccc4nc3Cl)cc2)nnc1-c1ccc(Br)cc1", "cat": "no"}
{"molecule": "Cn1ccnc1C(=O)C(=O)Nc1ccc(CC(=O)Nc2ccccc2)cc1", "cat": "no"}
{"molecule": "CCOC(=O)c1[nH]c(=O)c2c(C)nc(-c3ccccc3)cc2c1O", "cat": "no"}
{"molecule": "O=C(NCCCN1CCOCC1)c1cccc(N2C(=O)/C(=C/c3ccc(F)cc3)SC2=S)c1", "cat": "no"}
{"molecule": "c1cc2[nH]ncc2cc1-c1nc2ccc3[nH]ncc3c2c2c1CCCC2", "cat": "no"}
{"molecule": "CCc1ccc(C(=O)/C=C/C23c4ccccc4C(c4ccccc42)C2C(=O)NC(=O)C23)cc1 (stereo not given)", "cat": "yes"}
{"molecule": "COc1ccc(-c2nnc(-c3ccc4c(c3)nc(-c3ccncc3)n4C3CCCCC3)o2)cc1", "cat": "no"}
{"molecule": "CCCCCOc1ccc(C(=O)/C(Br)=C/C(=O)O)cc1", "cat": "no"}
{"molecule": "Cc1cc(Cl)ccc1Nc1nc(C(F)(F)F)ccc1C(=O)N/N=C/c1ccc([N+](=O)[O-])cc1", "cat": "yes"}
{"molecule": "Cc1cc2c(O)c(-c3cccc(Cl)c3)c3sc(=O)oc3c2cc1C", "cat": "no"}
{"molecule": "O=C(Cn1c2c(c3ccccc31)CCCC2)Nc1ccc(-c2nc3ccccc3s2)cc1", "cat": "no"}
{"molecule": "O=S(=O)(NCCCNc1nccc(-c2c(-c3ccc(F)c(O)c3)nc3occn23)n1)c1ccccc1", "cat": "no"}
{"molecule": "C#CCOc1ccc2ncnc(Nc3cccc(NC(=O)C=C)c3)c2c1", "cat": "no"}
{"molecule": "O=C1Nc2ccccc2/C1=C\\c1nc(-c2ccccc2)n2ccccc12", "cat": "no"}
{"molecule": "Cc1noc(C)c1C(=O)OCc1coc2ccccc2c1=O", "cat": "no"}

---

- Tested on: SK-OV-3 ovarian
- experiment.notes: NCI-60 one-dose screen, 48 h (100 = growth as untreated, 0 = no growth, -100 = all killed)
- setup.conditions: 10 µM unless noted
- Method: Growth inhibition of the SK-OV-3 human tumor cell line is measured as a screen for anti-cancer activity. Cells are grown in 96 well plates and exposed to the test compound for 48 hours. Compounds are tested at a single concentration, which is 10^-5 M for most compounds. The reported endpoint is percent growth (GI% or GIPRCNT), where numbers from 0 - 100% represent growth inhibition, and numbers from -100% - 0 represent cell death. For example, a value of 40 represents 60% growth inhibition. […]
The panel holds about 83,000 compounds, 20% with a hit somewhere; the sample as a whole holds those more often.
A collection of compounds and their measured growth

{"compound": "O=C(O)[C@@H]1c2ccccc2-c2ccccc2[C@H]1C(=O)O", "growth, %": 103}
{"compound": "CC(C)CCNC(=O)Cn1cccc(NC(=O)OCc2ccccc2)c1=O", "growth, %": 101}
{"compound": "O=C(OCc1ccc2cccc(O)c2n1)N1CCN(C(=O)c2cc3cc(F)ccc3[nH]2)CC1", "growth, %": 54.3}
{"compound": "Cc1oc(-c2ccc(Cl)cc2)nc1/C=C/C(=O)c1ccccc1", "growth, %": 100}
{"compound": "COc1cc(-c2cc(-c3cccs3)c(C#N)c(N3CCOCC3)n2)cc(OC)c1OC", "growth, %": 141}
{"compound": "CN(C)CCCC1(c2ccc(F)cc2)OCc2cc(-c3cncc4ccccc34)ccc21 (stereo not given)", "growth, %": 59.6}
{"compound": "CCN(CC)CCCN1C(=O)c2c(c(C)c3c(oc4cc(O)ccc43)c2C)C1=O", "growth, %": 105}
{"compound": "COc1cc(-c2cc(-c3ccc(N(C)C)cc3)nc(N3CCC(O)CC3)c2C#N)cc(OC)c1OC", "growth, %": 35.3}
{"compound": "O=C(Nn1c2c(sc1=Nc1ccccc1)C(=O)c1ccccc1C2=O)c1cc2ccc1CCc1ccc(cc1)CC2", "growth, %": 76.3}
{"compound": "Cc1cc(Cl)ccc1Nc1nc(C(F)(F)F)ccc1C(=O)N/N=C/c1ccc([N+](=O)[O-])cc1", "growth, %": -14.9}
{"compound": "C#Cc1cccc(Nc2ncnc3ccc(-c4cnc(N)nc4)cc23)c1", "growth, %": -2.3}
{"compound": "O=C(c1ccc(-c2nc(CSc3nc4ccccc4s3)no2)cc1)N1CCSCC1", "growth, %": 72.6}
{"compound": "O=c1oc2c(cnc3ccccc32)cc1-c1ccsc1", "growth, %": 104}
{"compound": "CN1C(=O)/C(=C/c2cn(-c3ccccc3)nc2-c2ccccc2)SC1=S", "growth, %": 109}
{"compound": "COc1ccc(/C=C2\\C(=O)N=C3N2NC(c2cc(Br)ccc2O)C=C(C)N3c2ccccc2)cc1 (stereo not given)", "growth, %": 99.6}
{"compound": "Fc1ccc2[nH]cc(-c3nonc3-c3c[nH]c4ccc(Br)cc34)c2c1", "growth, %": 44.3}
{"compound": "COc1cc(CNC(=O)/C=C/C=C/c2ccc3c(c2)OCO3)ccc1OCc1cn(-c2ccc(C)c(C)c2)nn1", "growth, %": 86.5}
{"compound": "COc1ccc(-c2cc(-c3ccc(Cl)cc3)c(C#N)c(=O)n2CCCCC(=O)Nc2ccccc2N)cc1", "growth, %": 78}
{"compound": "OCCCC1CCN(C(Cc2ccccc2)c2ccccc2)CC1 (stereo not given)", "growth, %": 84.9}
{"compound": "N#Cc1c(-c2ccccc2)cc(-c2ccccc2)n(CCCCCC(=O)Nc2ccccc2N)c1=O", "growth, %": 90.4}
